Taken from PubChem BioAssay AID1159580.

- assay-protocol: chemical genetic growth profiling, strain panel (AID 1159580);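 also: tested at 20 µM; growth read once vehicle control cultures reached saturation at 30 °C; 1 = growth at the plate median or of vehicle wells; lower values mean less growth of the strain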
- experimental-conditions: S. cerevisiae deletion strains, growth OD, locus YDR297W, strain sur2, hits give low values
Among all 5,500 compounds or so, about 2,000 (36%) were called active. Another 18% or so got no clear call; they are omitted. The list shows a part of the results.
outcome-measure: normalized growth

C=C1CCC2(OC1)OC1CC3C4CC=C5CC(O)CC(O)C5(C)C4CCC3(C)C1C2C (stereo not drawn) ... 1.01 (inactive)
CC(C)c1c(O)ccc2c1CCC1[C@@](C)(CO)CCC[C@]21C (stereo partly drawn) ... 1.02 (inactive)

Hi there! I need normalized growth for each item below, if you can.
1. CCC(c1ccc(O)cc1)C(CC)c1ccc(O)cc1 (stereo not drawn)
2. CC(C1OC(C)(C)C(O)C1O)[C@@H]1CC[C@]2(C)C3=CCC4C(C)(C)C(=O)CC[C@]4(C)C3CC[C@@]12C (stereo partly drawn)
3. C[C@@H]1CC[C@@]2(OC1)O[C@H]1CC3C4CC[C@H]5C[C@@H](O)CC[C@]5(C)C4CC[C@]3(C)[C@H]1[C@@H]2C (stereo partly drawn)
4. CC1CCC2(OC1)OC1CC3C4CC[C@H]5C[C@@H](O)CC[C@]5(C)C4CC(=O)[C@]3(C)C1C2C (stereo partly drawn)

1: 0.923 (inactive); 2: 0.981 (inactive); 3: 0.988 (inactive); 4: 0.995 (inactive)

Please report normalized growth for every entry that follows.
1. CC(CC(O)C1OC1(C)C)[C@@H]1CCC2(C)C3=CCC4C(C)(C)C(=O)CCC4(C)C3CC[C@@]12C (stereo partly drawn)
2. CCC(N)C(O)c1ccc(O)c(O)c1 (stereo not drawn)

1. 1 (inactive)
2. 0.991 (inactive)

###

Assign normalized growth to each entry below.
- assay-protocol: chemical genetic growth profiling, strain panel (AID 1159580);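 also: tested at 20 µM; growth read once vehicle control cultures reached saturation at 30 °C; 1 = growth at the plate median or of vehicle wells; lower values mean less growth of the strain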
- experimental-conditions: S. cerevisiae deletion strains, growth OD, locus YHR094C, strain hxt1, hits give low values
Hit rate of the full screen: of about 5,500 compounds, about 2,000 (36%) were called active. Not shown: some 18% with an inconclusive outcome. Some of the results follow.
Numbers only.

Examples with answers:
CC(CC(O)C1OC1(C)C)[C@@H]1CCC2(C)C3=CCC4C(C)(C)C(=O)CCC4(C)C3CC[C@@]12C (stereo partly drawn) ... 1.04
O=C(O[C@@H]1Cc2c(O)cc(O)cc2O[C@@H]1c1cc(O)c(=O)c2c(O)c(O)cc([C@H]3Oc4cc(O)cc(O)c4C[C@H]3OC(=O)c3cc(O)c(O)c(O)c3)c2c1)c1cc(O)c(O)c(O)c1 ... 1.04

Please turn your attention to the following entry.
Look up normalized growth: CC(C1OC(C)(C)C(O)C1O)[C@@H]1CC[C@]2(C)C3=CCC4C(C)(C)C(=O)CC[C@]4(C)C3CC[C@@]12C (stereo partly drawn)
1.03

###

- assay-protocol: chemical genetic growth profiling, strain panel (AID 1159580);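 also: tested at 20 µM; growth read once vehicle control cultures reached saturation at 30 °C; 1 = growth at the plate median or of vehicle wells; lower values mean less growth of the strain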
- experimental-conditions: S. cerevisiae deletion strains, growth OD, locus YOR231W, strain MKK1
In all, about 5,500 compounds went through this assay and about 2,000 (36%) were called active. Inconclusive results (about 18%) are left out. No stated cut-off is given here; in the data, active means normalized growth mostly below about 0.91 (no sharp cut-off); inconclusive means no clear call, values can overlap the other calls; inactive means mostly above about 0.92. The list shows a part of the results.
# valid calls are active, inactive; nothing else

Record excerpt, results attached:
CN(C)C=Nc1nnc(Sc2nc3c(Cl)cc(Cl)cc3s2)s1 ... inactive
CCC(N)C(O)c1ccc(O)c(O)c1 (centres undefined) ... inactive
O=c1c(O)c(-c2ccc(O)cc2O)oc2cc(O)cc(O)c12 ... inactive
C[C@@H]1O[C@@H](OC[C@H]2OC(Oc3c(-c4ccc(OCCO)c(OCCO)c4)oc4cc(OCCO)cc(O)c4c3=O)[C@H](O)[C@@H](O)[C@@H]2O)[C@H](O)[C@H](O)[C@H]1O (some centres undefined) ... inactive
CC12CCC3c4ccc(OC(=O)c5ccccc5)cc4CCC3C1CCC2O (centres undefined) ... inactive

What outcome does the record of this test show for CCC(=O)O[C@H](CC(=O)O)C[N+](C)(C)C ?
inactive

For this compound, state the assay outcome: C[N+](C)(C)CC(O)CC(=O)O (centres undefined)
inactive

For CCC(=O)c1c(O)cc(O)cc1O , which call appears in the assay record?
inactive

Look up the recorded call for C[C@@H]1O[C@@H](OC[C@H]2OC(Oc3c(-c4ccc(O)c(O)c4)oc4cc(O)cc(O)c4c3=O)[C@H](O)[C@@H](O)[C@@H]2O)[C@H](O)[C@H](O)[C@H]1O (some centres undefined) in this test.
inactive

For this compound, state the assay outcome: CCN[C@@H]1C[C@H](N)[C@@H](O[C@H]2OC(CN)=CC[C@H]2N)[C@H](O)[C@H]1OC1OC[C@](C)(O)[C@H](NC)[C@H]1O (some centres undefined)
inactive

Short answer needed: outcome of this test for CCc1cc(C(N)=S)ccn1 ?
inactive

Please state the recorded outcome for this compound: CCNC(=S)N/N=C\c1cc(Cl)cc(Cl)c1O
active

How was COC1=CC(=O)C(O)=C/C1=C\C=C\c1ccccc1 classified in this test?
active

Field: outcome | Entry: CC/C(=C(/CC)c1ccc(O)cc1)c1ccc(O)cc1
inactive

Check the results log: what was the call for O=C1Nc2ccccc2/C1=C\c1ccc(Cl)cc1 ?
inactive

I'd appreciate the recorded outcome for CCCCOc1cc(C(=O)NCCN(CC)CC)c2ccccc2n1 from this test.
inactive

Hi, sorry to bother you, what did the test record for O=c1c(O)c(-c2ccc(O)c(O)c2)oc2c(O)c(O)cc(O)c12 ?
inactive

Just curious, what result did CN[C@@H]1C(O)[C@@H](O[C@@H]2[C@@H](O)[C@H](O[C@H]3OC(CN)=CC[C@H]3N)[C@@H](N)C[C@H]2N)OC[C@]1(C)O (some centres undefined) get here?
inactive

So what was the verdict on COC(=O)c1c(C)cc(O)cc1O in this test?
inactive

// outcome(item) with item = COC(=O)c1c(C)cc(OC)cc1O
inactive

Dear all, I need the recorded test outcome for COC1=CC(=O)C(C(=O)c2ccccc2)=CC1=O , thank you.
inactive

Recorded test call requested for CCOC(=O)c1c(C)cc(OC)cc1O
inactive

Answer briefly: the call reported for C[C@]12CCC3c4ccc(O)cc4CCC3C1CC[C@@H]2O (some centres undefined) in this assay.
inactive

What call does the record list for OCC(O)C(O)C(O)C(O)C(O)CO (centres undefined) ?
inactive
